- test_description: small-molecule microarray binders of probe aCHRDL2, primary screen, biochemical, biotinylated probe, 635/667 nm fluorescence (AID 1100)
- condition_info: higher = more signal
Classify as follows. Reported composite z-score greater than or equal to 0.6: label 1. Reported composite z-score below: label 0.

Examples with answers:
compound	group
O=C1O[C@@H](c2ccccc2)[C@@H](c2ccccc2)N2[C@@H](c3ccccc3OCCO)[C@]3(C(=O)Nc4ccc(C#CCCO)cc43)[C@@H](C(=O)O)[C@H]12	label 0
CO[C@@H]1COC(=O)CCC[C@@H](C)[C@H](OC)COC(=O)CCC[C@H]1C	label 0
C=CCOC(=O)[C@H]1[C@@H]2C(=O)O[C@@H](c3ccccc3)[C@@H](c3ccccc3)N2[C@@H](c2ccc(OCCOC(=O)[C@H]3C[C@H]4C(=O)N5CCC[C@H]5C(=O)N4[C@H]3c3cccc(OCCO)c3)cc2)[C@]12C(=O)Nc1ccc(I)cc12	label 1
COCCOC(=O)N1C(=O)[C@@]2(c3cc(C#Cc4ccc(OC)cc4)ccc31)[C@H](C(=O)N1CCN(c3ncccn3)CC1)[C@H]1C(=O)O[C@H](c3ccccc3)[C@H](c3ccccc3)N1[C@@H]2c1ccc(OCCO)cc1	label 1
CCN1C(=O)[C@H]2[C@H]3[C@H](O)[C@H](O)CC(=NOCc4ccccc4)[C@H]3CC[C@H]2C1=O	label 0
CCOC(=O)[C@H](Cc1ccccc1)NC(=O)CCC1CC(OC(=O)NCc2ccc3c(c2)OCO3)CC2(CCCC(COC(=O)NCc3cccc(C(F)(F)F)c3)O2)O1 (stereo partly drawn)	label 0
CCOC(=O)CCN1C(=O)[C@H]2[C@H]3[C@H](O)[C@H](O)CC(=NOCc4ccccc4)[C@@H]3CC[C@H]2C1=O	label 0
C=CCOC(=O)[C@H]1[C@@H]2C(=O)O[C@@H](c3ccccc3)[C@@H](c3ccccc3)N2[C@@H](c2ccc(OCCOC(=O)[C@H]3C[C@H]4C(=O)N[C@@H](Cc5ccccc5)C(=O)N4[C@H]3c3ccc(O)cc3)cc2)[C@]12C(=O)Nc1ccccc12	label 0
[N-]=[N+]=NCc1ccccc1C[C@]1(C(=O)NCc2ccccc2)N=C(c2ccc(OCCCO)cc2)O[C@H]1c1ccccc1N=[N+]=[N-]	label 1
COC(=O)[C@H](C)NC(=O)CCC1CC(OC(=O)NCc2cccc3ccccc23)CC2(CCCC(COC(=O)NCCc3ccc(Cl)cc3)O2)O1 (stereo partly drawn)	label 0

Given the entry CCOC(=O)C1=CCC(c2cc3ccccc3[nH]2)NC1 (stereo not drawn) , answer whether its composite z-score meets or surpasses 0.6.
label 1

Given the entry COc1ccc(-c2ccc3c(n2)CCCN3CC(O)CN2CCCc3nc(C)c(C)cc32)cc1 (stereo not drawn) , answer whether its composite z-score meets or surpasses 0.6.
label 0

Given the entry COCCCNC(=O)[C@]1(CCC(=O)OC(C)(C)C)N=C(c2ccc(OCCCO)cc2)O[C@@H]1c1ccccc1N=[N+]=[N-] , answer whether its composite z-score meets or surpasses 0.6.
label 1

* * *

- subject_of_test: Fibroblast growth factor 2 (Homo sapiens) (UniProt P09038)
- Sequence (P09038 whole entry, looked up): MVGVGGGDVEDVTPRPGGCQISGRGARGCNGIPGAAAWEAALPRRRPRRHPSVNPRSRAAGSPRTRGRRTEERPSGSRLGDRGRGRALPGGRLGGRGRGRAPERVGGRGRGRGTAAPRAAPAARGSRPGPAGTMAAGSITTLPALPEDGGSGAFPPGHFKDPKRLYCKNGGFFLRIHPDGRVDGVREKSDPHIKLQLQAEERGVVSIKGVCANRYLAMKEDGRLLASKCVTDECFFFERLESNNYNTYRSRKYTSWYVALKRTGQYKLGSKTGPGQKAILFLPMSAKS
- test_description: FGF2 binders on small-molecule microarrays, primary screen, biochemical, small-molecule microarray, 635/667 nm fluorescence (AID 1133)
- condition_info: small-molecule microarray binding, FGF2, fluorescence 635/667; higher = more signal
Could you please report measured composite z-score for the items listed next?
Answers are plain numbers.

Below, 5 compounds whose answers are already recorded.
compound	subject_of_test	composite z-score
O=C1O[C@@H](c2ccccc2)[C@@H](c2ccccc2)N2[C@@H](c3ccc(OCCO)cc3)[C@]3(C(=O)Nc4ccc(C#CCCO)cc43)[C@@H](C(=O)N3CCCCCCC3)[C@H]12	Fibroblast growth factor 2 (Homo sapiens) (UniProt P09038)	0.585
CC(C)(C)OC(=O)CC[C@]1(C(N)=O)COC(c2ccc(OCCCO)cc2)=N1	Fibroblast growth factor 2 (Homo sapiens) (UniProt P09038)	1.13
CC[C@@H](c1ccccc1)n1c(=O)n2n(c1=O)[C@H]1[C@H](O)[C@@H]3O[C@@H]3C(=NOCC(C)C)[C@H]1CC2	Fibroblast growth factor 2 (Homo sapiens) (UniProt P09038)	0.0571
CC1CC/C=C\[C@H]2OC34C=CCN(C(C)C)C(=O)[C@H]3N(CCCO)C(=O)[C@@H]4C2C(=O)O1 (some centres undefined)	Fibroblast growth factor 2 (Homo sapiens) (UniProt P09038)	-1.24
CC(C)=NOCc1ccc(-c2cc(-c3ccccc3)no2)cc1	Fibroblast growth factor 2 (Homo sapiens) (UniProt P09038)	0.437

Parameter requested: composite z-score. Apply to each item below.
1. CCOC(=O)NN=C1C[C@@H](O)[C@@H](O)[C@@H]2[C@@H]3C(=O)N(CC)C(=O)[C@@H]3CC[C@@H]12
2. CCCCCCc1nc(CCCc2cc3c(c(CCCCCC)n2)[Si](C(C)C)(C(C)C)O[C@H]3c2ccccc2)cc2c1[Si](C(C)C)(C(C)C)O[C@H]2c1ccccc1
3. O=C(CS)NCCCCCNC(=O)[C@@H]1C[C@@H]2C(=O)N[C@@H](Cc3ccccc3)C(=O)N2[C@@H]1c1ccc(O)cc1

1: -0.0549; 2: -0.0811; 3: 1.29

Parameter requested: composite z-score. Apply to each item below.
1. CO[C@@H]1COC(=O)CC=C[C@@H](C)COC(=O)[C@H](COCc2ccccc2)NC(=O)CC=C[C@H]1C
2. O=C1O[C@@H](c2ccccc2)[C@@H](c2ccccc2)N2[C@@H](c3ccc(O)cc3)[C@]3(C(=O)Nc4ccccc43)[C@@H](C(=O)O)[C@H]12
3. Cc1ccc(F)cc1S(=O)(=O)N[C@@H]1CCN(Cc2ccc(CC(C)C)cc2)C1
4. O=C1C2C=CC(C(O)c3ccc([N+](=O)[O-])cc3)N(Nc3ccc([N+](=O)[O-])cc3)C2C(=O)N1c1ccccc1 (centres undefined)
5. CCc1cc2c(nc1CC)CCN(CCC(C)=NOC[C@@H](O)[C@H]1O[C@@H]3OC(C)(C)O[C@@H]3[C@H]1O)C2
6. CC(C)[C@@H](OCc1ccccc1)[C@H](C)C=NO[C@H](C)c1cn([C@H](CO)Cc2ccccc2)nn1
7. O=C1[C@H]2[C@H]3[C@H](O)[C@H](O)CC(=NOCc4ccccc4)[C@@H]3CC[C@H]2C(=O)N1Cc1ccccc1
8. CO[C@H]1COC(=O)[C@@H]2CCCN2C(=O)CC=C[C@@H](C)[C@H](OC)COC(=O)CC=C[C@@H]1C

1: 1.73; 2: -0.352; 3: -0.367; 4: -0.519; 5: 0.106; 6: 0.446; 7: 0.47; 8: 1.21

Parameter requested: composite z-score. Apply to each item below.
1. Cc1cc2c(nc1C)CCCN2CC(C)ON=C1[C@H]2CCn3c(=O)n(-c4ccccc4)c(=O)n3[C@H]2[C@H](O)[C@@H]2O[C@H]12 (some centres undefined)
2. CCOC(=O)C1=CC[C@H]2C(=O)N(CC)C(=O)[C@@H]12
3. CC1CC/C=C\[C@H]2OC34C=CCN(Cn5nnc6ccccc65)C(=O)[C@H]3N(CCO)C(=O)[C@@H]4C2C(=O)O1 (some centres undefined)
4. COC(=O)[C@H](C)NC(=O)CCC1CC(OC(=O)NCc2cccc3ccccc23)CC2(CCCC(COC(=O)NCC3CCCCC3)O2)O1 (some centres undefined)
5. C#CCCCON=C1C[C@@H](O)[C@@H](O)[C@@H]2[C@@H]3C(=O)N(c4cccc(Oc5ccccc5)c4)C(=O)[C@@H]3CC[C@@H]12
6. C[C@@H](c1ccccc1)N1C(=O)[C@H]2[C@H]3[C@H](O)[C@H](O)CC(=NNC(=O)OCc4ccccc4)[C@H]3CC[C@H]2C1=O
7. COC(=O)[C@H](C)NC(=O)CCC1CC(OC(=O)NCc2cccc3ccccc23)CC2(CCCC(COC(=O)NCCc3ccc(Cl)cc3)O2)O1 (some centres undefined)

[0.56, 0.218, -1.35, 1.4, 0.224, 0.0573, 0.212]

* * *

- subject_of_test: Calmodulin-1 (Homo sapiens)
- test_description: CALM1 binders on microarrays, EGTA buffer, profiling panel, biochemical, small-molecule microarray, Cy5-labelled CALM1 (AID 1111);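 further: labelled calmodulin applied in Tris saline Tween buffer holding calcium plus EGTA and DTT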
- condition_info: Cy5-CALM1 binding fluorescence, higher = more signal
measured_attribute: composite z-score

Below, 5 compounds whose answers are already recorded.
> print(dat)
                                smiles.data              subject.of.test  measured.attribute  recorded.result
1  CC(C)(C)OC(=O)CC[C@]1(C(=O)NCc2ccccc2)N=C(c2ccc(OCCCO)cc2)O[C@H]1c1ccccc1  Calmodulin-1 (Homo sapiens)   composite z-score             1.91
2  COC(=O)[C@@]1(Cc2ccc(OC)cc2)[C@H]2c3cc(C(=O)N4CCCC4)n(Cc4cc(F)c(F)c(F)c4)c3C[C@H]2CN1C(=O)c1ccccc1  Calmodulin-1 (Homo sapiens)   composite z-score             2.69
3  Cc1cc(C)c(-c2cc([C@H](C)ON=C3[C@H]4CCn5c(=O)n(-c6ccccc6)c(=O)n5[C@H]4[C@H](O)[C@@H]4O[C@H]34)on2)c(C)c1  Calmodulin-1 (Homo sapiens)   composite z-score           0.0681
4  COc1ccc(O[C@H]2C=C[C@@H](c3ccccc3)O[C@@H]2COC(=O)CCC(C)=NOCC[C@@H]2C=C[C@H](OC(C)=O)[C@@H](COC(C)=O)O2)cc1  Calmodulin-1 (Homo sapiens)   composite z-score            -1.02
5       COC(=O)[C@@H]1CCCN1C(=O)[C@@H](C)CO  Calmodulin-1 (Homo sapiens)   composite z-score             0.49

Identify composite z-score associated with the compound COc1cccc([C@@H]2Oc3ccc(Br)cc3C(=O)[C@H]2O)c1
0.042
